Where do the numbers come from? From paper PMC10855902.

ASSAYED_TARGET: T1, Recombinant human EGFR protein (Active) (ab155639) (human, UniProt P00533 25-645, labelled with RED-tris-NTA 2nd Generation dye)
T1 construct: epidermal growth factor receptor (EGFR, ErbB-1), human, recombinant; also called EGF receptor; ErbB-1; source: bought: Abcam (ab155639), recombinant
ASSAY_EXPLANATION: MST; RED-tris-NTA-labelled EGFR 25 nM, ligand in a 16-step 1:1 dilution series in PBS-T, 30 min at room temperature; assay concentration of the ligand 10 mM
EXPERIMENTAL_PARAMETERS: both partners purified
READOUT: pKd
Field pKd (float): negative decimal logarithm of the concentration in molar.

So what does the record say about pKd for QYRDL (EGF, human, residues 43-47; numbers count on: the mature protein; source: synthetic peptide (SPPS, Fmoc; crude, without preparative HPLC)) [EGF fragment 43–47 (QYRDL)] ?
3.90

Now for another entry.
Which pKd value is on record for HDGYCL (EGF, human, residues 10-15; numbers count on: the mature protein; also called 10–15 EGF fragment; source: synthetic peptide (SPPS, Fmoc; crude, without preparative HPLC)) [EGF fragment 10–15 (HDGYCL)] ?
3.27
